system: HL-60(TB) leukemia; assay: NCI-60 one-dose screen, 48 h (100 = growth as untreated, 0 = no growth, -100 = all killed); settings: 10 µM unless noted
About 83,000 compounds went through this panel and 20% of them were active in at least one assay; those are over-represented in the sample as a whole. Activity calls are given as the source filed them. How the source made its calls: active means growth percent below 10; inactive means the rest.
value_type: growth

* CC1(C)Cc2c(sc3ncn4nc(-c5ccc(O)cc5)nc4c23)CO1 | 62.1% (inactive)
* Cc1cc(Cl)nc(N(CCNc2ccnc3cc(Cl)ccc23)Cc2ccco2)n1 | -47.7% (active)
* CCOC(=O)c1ccc(NC(=O)c2nc(-c3cc(OC)c(OC)c(OC)c3)n(-c3ccc(Cl)cc3)n2)cc1 | 77.3% (inactive)
* NC(CCc1nc2ccccc2c(=O)[nH]1)C(=O)O (stereo not given) | 103% (inactive)
* CC(C)(C)c1ccc(S(=O)(=O)Oc2ccc3c4c(c(=O)oc3c2)CCCCC4)cc1 | 52% (inactive)
* CCOC(=O)C1(Cc2ccccc2)CCN(Cc2cccc(OC)c2O)CC1 | -11.6% (active)
* Nc1nc(=S)c2ncn(C3OC(COP(=O)(O)O)C(O)C3O)c2[nH]1 (stereo not given) | 16.3% (inactive)
* COc1cc(C(=O)NN=C2c3ccccc3-c3ccccc32)cc(OC)c1OC | 11.4% (inactive)
* NC(N)=NCCCCCNc1noc(Cc2c[nH]c3cc(Br)ccc23)n1 | 44.9% (inactive)
* COc1ccc(OC)c(-c2c(C#N)c(-c3cccs3)nc3c2c(-c2ccccc2)nn3-c2ccccc2)c1 | 107% (inactive)

---

test system: HL-60(TB) leukemia; assay: NCI-60 one-dose screen, 48 h (100 = growth as untreated, 0 = no growth, -100 = all killed); details: 10 µM unless noted
About 83,000 compounds went through this panel and 20% of them were active in at least one assay; those are over-represented in the sample as a whole.
Label Not satisfied if growth falls below 60%; label Satisfied in every other case.

- COc1ccc(Cn2c(NCCCN(C)C)nc(=O)n(Cc3ccc(F)cc3)c2=O)cc1: Satisfied
- O=[N+]([O-])c1ccc(N/N=C/c2c(O)ccc3ccccc23)nc1: Not satisfied
- C=C1CCC[C@]2(C)CCC[C@H](C)[C@@H](OC(C)=O)[C@@H]3OC(=O)C(=C)[C@@H]3C[C@H]1O2: Not satisfied
- Clc1nc(Cl)c2ncn(C/C=C/Cn3cnc4c(Cl)nc(Cl)nc43)c2n1: Not satisfied
- COc1ccc2c(c1)C(=O)c1c-2c(OCCN(C)C)nc2cc(OC)ccc12: Not satisfied
- Cc1cc(C(=O)CSc2nc3ccccc3c(=O)[nH]2)c(C)n1C: Satisfied
- COC(=O)[C@]1(C)CCC[C@]2(C)[C@H]3C[C@H]4C(C(C)C)=C[C@]3(CC[C@H]21)[C@H]1[C@@H]4[C@@H](OCCC#N)CC[C@@H]1OCCC#N: Not satisfied
- O=C(Nc1ccc(F)cc1F)c1cc(F)ccc1O: Not satisfied
- COC(=O)CCCNS(=O)(=O)c1cc(C(=O)Nc2ccc(NC(=O)c3cc(S(=O)(=O)NCCCC(=O)OC)c(O)c(O)c3O)cc2)c(O)c(O)c1O: Satisfied
- O=C(O)/C(=C\c1ccc(Cl)cc1)c1ccc(Cl)cc1: Not satisfied
- COc1ccc(-c2cc(/C=C3\C(=O)Nc4cc(Cl)ccc43)[nH]n2)cc1OC: Not satisfied
- C[C@H](C(=O)N[C@@H](Cc1ccc(-c2ccccc2)cc1)C(=O)NC1CC(C)(C)N(C)C(C)(C)C1)c1ccc(-c2ccccc2)c(F)c1: Not satisfied
- COc1cc(-c2nc3cc(Cl)c(Cl)cc3[nH]2)ccc1OCC(=O)N=Nc1c(O)[nH]c2ccc([N+](=O)[O-])cc12: Satisfied
- COc1ccc(CNC(=O)[C@H](O)[C@@H](N)Cc2ccccc2)cc1: Satisfied
- COc1cc(-c2nn(-c3ccc(NC(=O)c4ccc(Cl)c(C(F)(F)F)c4)cc3)cc2-c2ccncc2)ccc1Cl: Not satisfied
- COCCn1cc(-c2nc(-c3cc4cccnc4n3CCOC)cs2)c2cc(OC)ccc21: Satisfied
- CC(C)NC1CCC(Nc2ccnc3cc(Cl)ccc23)CC1 (configuration not stated): Not satisfied
- C=C(C)[C@@H]1CC[C@]2(C(=O)OC)CC[C@]3(C)[C@H](CC[C@@H]4[C@@]5(C)C/C(=C/NC(N)=S)C(=O)C(C)(C)[C@@H]5CC[C@]43C)[C@@H]12: Satisfied
- O=C1CCC(NC(=S)Nc2ccccc2)N1 (configuration not stated): Satisfied
- Oc1c(Cl)cc(Cl)c2ccc(Cn3cc(-c4cc(C(F)(F)F)cc(C(F)(F)F)c4)nn3)nc12: Not satisfied
- Cc1cc(S(=O)(=O)/N=C(\N)n2nc(C)c(C)c2C)c(SCc2ccccc2)cc1Cl: Satisfied
- Cc1ccc(C(=O)Nc2ccccc2C(=O)N/N=C(\c2ccccc2)c2ccccn2)cc1: Not satisfied
- CN(c1ccccc1)c1ccc2c(c1)OCCC21CC1Nc1cnccc1C(=O)O (configuration not stated): Satisfied
- O=C(CSc1nnc(-c2ccc(NC(=O)c3cccnc3)cc2)o1)N[C@@H](Cc1ccc(O)cc1)C(=O)O: Satisfied
- COc1cc(NCCCCC(C)N)c2nccc(C)c2c1 (configuration not stated): Satisfied
- O=C(Nc1ccc(CN2CCc3nc4cc(O)c(O)cc4cc32)cc1)c1ccc(Cl)c(Cl)c1: Satisfied
- Cc1cccc(C)c1NC(=O)CSC(=S)N1CCCCC1: Satisfied
- CCN(CC)c1ccc(/C=C/c2ccc3cc(C)ccc3[n+]2CC)cc1: Not satisfied
- CCN(CC)c1ccc(N=O)cc1: Not satisfied
- CC[C@@H](C(=O)[C@H](C)[C@H](O)[C@@H](C)[C@H]1O[C@H]([C@@H](CC)C(=O)O)CC[C@H]1C)C1O[C@]2(C=C[C@@H](O)[C@]3(CC[C@@](C)([C@H]4CC[C@](O)(CC)[C@H](C)O4)O3)O2)[C@H](C)C[C@@H]1C (some centres not stated): Not satisfied
- COc1ccc(N)c(S)c1: Satisfied
- CCNc1ncnc2[nH]ncc12: Satisfied
- COc1cccc(-c2nc3sccn3c2-c2ccnc(NCCCNS(=O)(=O)c3ccccc3)n2)c1: Not satisfied
- CCN(CC)CCCNc1nc(C)cc(Nc2ccc3nc(C)cc(N)c3c2)n1: Satisfied
- C=C1C(=O)O[C@H]2[C@H]1CC/C(C(=O)NCCOCCOCC(=O)Nc1ccc(OC)c(C(N)=O)c1O)=C\CC[C@@]1(C)O[C@@H]21: Satisfied
- COc1ccc(COC=O)cc1: Satisfied
- ClC(Cl)c1nc(-c2cccnc2)n2nc(-c3ccccc3)cc2n1: Not satisfied
